- Test system: NCI-H1876 complex spheroid viability
- test: Anticancer human tumor NCI-H1876 cell line growth inhibition [LSD1]; active = viability on the fitted dose curve at most 10% of control; inactive = the rest;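 also: spheroids exposed to compounds for one week before readout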
- experimental_conditions: second compound 3.16 µM; first compound 0.0949 µM
- Description: Multicellular complex tumor spheroid response to LSD1 Inhibitor Iadademstat in combination with a variety of drugs and investigational agents in selected tumor cell lines The current study was undertaken to assess response to LSD1 inhibitors in combination with standard-of-care drugs and investigational agents in solid tumor complex spheroid models as well as in the K-562 leukemia. […] Compounds. […] If the clinical Cmax for an agent had not been determined, the highest concentration tested was 10 microM. […]
Outcomes you can answer with include only these: True = active, False = inactive

[[record]]
molecule = "O=C(C=Cc1cccc(S(=O)(=O)Nc2ccccc2)c1)NO + NC1CCC(NC2CC2c2ccccc2)CC1"
class_assignment = "False"

[[record]]
molecule = "CCc1c2c(nc3ccc(O)cc13)-c1cc3c(c(=O)n1C2)COC(=O)[C@]3(O)CC + NC1CC1c1ccc(-c2cccc(O)c2)cc1"
class_assignment = "True"

[[record]]
molecule = "Nc1ncn(C2CC(O)C(CO)S2)c(=O)n1 (centres undefined) + NC1CCC(NC2CC2c2ccccc2)CC1"
class_assignment = "False"


# evaluate next
Query string: GET /call?item= CCN(c1cc(-c2ccc(CN3CCOCC3)cc2)cc(C(=O)NCc2c(C)cc(C)[nH]c2=O)c1C)C1CCOCC1 + NC1CCC(NC2CC2c2ccccc2)CC1 returns the recorded outcome of this test.
Result string: False

###

- Tested on: NCI-H1876 complex spheroid viability
- test: Anticancer human tumor NCI-H1876 cell line growth inhibition [LSD1]; active = viability on the fitted dose curve at most 10% of control; inactive = the rest;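 also: spheroids exposed to compounds for one week before readout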
- experimental_conditions: second compound 0.1 µM; first compound 0.0949 µM
Outcomes you can answer with include only these: active, inactive

[[record]]
molecule = "Nc1ccn(C2OC(CO)C(O)C2(F)F)c(=O)n1 (stereo unspecified) + NC1CC1c1ccc(-c2cccc(O)c2)cc1"
class_assignment = "active"


Query string: GET /call?item= NS(=O)(=O)OCC1CC(n2ccc3c(NC4CCc5ccccc54)ncnc32)CC1O (stereo unspecified) + NC1CC1c1ccc(-c2cccc(O)c2)cc1 returns the recorded outcome of this test.
Result string: inactive

Query string: GET /call?item= Nc1ncn(C2CC(O)C(CO)S2)c(=O)n1 (stereo unspecified) + NC1CC1c1ccc(-c2cccc(O)c2)cc1 returns the recorded outcome of this test.
Result string: inactive

Query string: GET /call?item= NS(=O)(=O)OCC1CC(n2ccc3c(NC4CCc5ccccc54)ncnc32)CC1O (stereo unspecified) + NC1CCC(NC2CC2c2ccccc2)CC1 returns the recorded outcome of this test.
Result string: inactive

Query string: GET /call?item= Nc1ncn(C2CC(O)C(CO)S2)c(=O)n1 (stereo unspecified) + NC1CCC(NC2CC2c2ccccc2)CC1 returns the recorded outcome of this test.
Result string: inactive

Query string: GET /call?item= CCc1c2c(nc3ccc(O)cc13)-c1cc3c(c(=O)n1C2)COC(=O)[C@]3(O)CC + NC1CCC(NC2CC2c2ccccc2)CC1 returns the recorded outcome of this test.
Result string: active

Query string: GET /call?item= Nc1ccccc1NC(=O)c1ccc(CNC(=O)OCc2cccnc2)cc1 + NC1CC1c1ccc(-c2cccc(O)c2)cc1 returns the recorded outcome of this test.
Result string: inactive

###

- Tested on: NCI-H1876 complex spheroid viability
- test: Anticancer human tumor NCI-H1876 cell line growth inhibition [LSD1]; active means viability on the fitted dose curve at most 10% of control; inactive means the rest;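 also: spheroids exposed to compounds for one week before readout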
- experimental_conditions: second compound 1 µM; first compound 3 µM
Outcomes you can answer with include only these: active, inactive

// known answers, use as guide
[[record]]
compound = "CCN(c1cc(-c2ccc(CN3CCOCC3)cc2)cc(C(=O)NCc2c(C)cc(C)[nH]c2=O)c1C)C1CCOCC1 + NC1CCC(NC2CC2c2ccccc2)CC1"
class_assignment = "inactive"

[[record]]
compound = "NS(=O)(=O)OCC1CC(n2ccc3c(NC4CCc5ccccc54)ncnc32)CC1O (stereo not given) + NC1CC1c1ccc(-c2cccc(O)c2)cc1"
class_assignment = "inactive"

[[record]]
compound = "O=C(C=Cc1cccc(S(=O)(=O)Nc2ccccc2)c1)NO + NC1CCC(NC2CC2c2ccccc2)CC1"
class_assignment = "active"

[[record]]
compound = "O=C(C=Cc1cccc(S(=O)(=O)Nc2ccccc2)c1)NO + NC1CC1c1ccc(-c2cccc(O)c2)cc1"
class_assignment = "active"

[[record]]
compound = "COc1cc(C2c3cc4c(cc3C(OC3OC5COC(C)OC5C(O)C3O)C3COC(=O)C23)OCO4)cc(OC)c1O (stereo not given) + NC1CCC(NC2CC2c2ccccc2)CC1"
class_assignment = "inactive"

[[record]]
compound = "Nc1ccccc1NC(=O)c1ccc(CNC(=O)OCc2cccnc2)cc1 + NC1CC1c1ccc(-c2cccc(O)c2)cc1"
class_assignment = "active"

[[record]]
compound = "CCN(c1cc(-c2ccc(CN3CCOCC3)cc2)cc(C(=O)NCc2c(C)cc(C)[nH]c2=O)c1C)C1CCOCC1 + NC1CC1c1ccc(-c2cccc(O)c2)cc1"
class_assignment = "inactive"

[[record]]
compound = "NS(=O)(=O)OCC1CC(n2ccc3c(NC4CCc5ccccc54)ncnc32)CC1O (stereo not given) + NC1CCC(NC2CC2c2ccccc2)CC1"
class_assignment = "inactive"

[[record]]
compound = "Nc1ccccc1NC(=O)c1ccc(CNC(=O)OCc2cccnc2)cc1 + NC1CCC(NC2CC2c2ccccc2)CC1"
class_assignment = "active"


Query string: GET /call?item= COc1cc(C2c3cc4c(cc3C(OC3OC5COC(C)OC5C(O)C3O)C3COC(=O)C23)OCO4)cc(OC)c1O (stereo not given) + NC1CC1c1ccc(-c2cccc(O)c2)cc1 returns the recorded outcome of this test.
Result string: active

This collection of values is drawn from PubChem BioAssay AID1918957.
